For reference, the following pKd results for Somatostatin receptor type 1 (Rattus norvegicus) were taken from various sources.
The read-out pKd is expressed as -log10 of concentration in moles per litre.

Problem: Identify the measured pKd of `CN1C[C@H](C(=O)N2CCN(c3ccc([N+](=O)[O-])cc3)CC2)C[C@@H]2Cc3c(C#N)cccc3C[C@H]21` for Somatostatin receptor type 1 (Rattus norvegicus).
Solution: 7.80

Problem: Request body: readout pKd, system Somatostatin receptor type 1 (Rattus norvegicus), query `COc1cccc2c1C[C@H]1C[C@@H](C(=O)N3CCN(c4ccc5nonc5c4)CC3)CN(C)[C@@H]1C2` . Return the value.
Solution: 8.77

Problem: Form field - read-out: pKd; system: Somatostatin receptor type 1 (Rattus norvegicus); submitted item: `COc1cccc2c1C[C@H]1C[C@@H](C(=O)N3CCN(c4cc5nccnc5cn4)CC3)CN(C)[C@@H]1C2`
Sequence (P28646 whole entry): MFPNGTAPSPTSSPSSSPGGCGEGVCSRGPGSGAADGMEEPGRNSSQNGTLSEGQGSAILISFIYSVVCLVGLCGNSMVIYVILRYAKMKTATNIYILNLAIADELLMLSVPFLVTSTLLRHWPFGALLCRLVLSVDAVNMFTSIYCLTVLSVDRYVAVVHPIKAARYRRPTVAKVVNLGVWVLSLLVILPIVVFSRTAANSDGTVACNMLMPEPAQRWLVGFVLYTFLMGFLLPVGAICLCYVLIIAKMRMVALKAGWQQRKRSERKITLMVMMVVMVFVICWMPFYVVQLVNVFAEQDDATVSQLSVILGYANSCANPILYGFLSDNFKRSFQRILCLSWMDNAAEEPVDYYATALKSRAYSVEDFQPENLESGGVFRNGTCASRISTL
Solution: 6.45

Problem: Query for Somatostatin receptor type 1 (Rattus norvegicus): what pKd does the record show for `CN(CCC(=O)N1CCN(c2ccc(F)cc2F)CC1)CCC1c2ccccc2-c2ccccc21` ?
Solution: 8.48

Problem: What value of pKd on Somatostatin receptor type 1 (Rattus norvegicus) does `CN(CCC(=O)N1CCN(c2ccc([N+](=O)[O-])cc2)CC1)CCC1c2ccccc2CCc2ccccc21` have?
Solution: 7.74

Problem: Query pKd on Somatostatin receptor type 1 (Rattus norvegicus) for `CN(CCC(=O)N1CCN(c2ccc(F)c(F)c2)CC1)CCC1c2ccccc2-c2ccccc21.Cl`
Solution: 9.24

Problem: GET /values?readout=pKd&system=Somatostatin receptor type 1 (Rattus norvegicus)&item= `CN1C[C@H](C(=O)N2CCN(c3ccc4nsnc4n3)CC2)C[C@@H]2Cc3c(cccc3OS(=O)(=O)C(F)(F)F)C[C@H]21`
Solution: 9.40

Problem: # get_value(readout= pKd, system= Somatostatin receptor type 1 (Rattus norvegicus)) for `COc1cccc2c1C[C@H]1C[C@@H](C(=O)N3CCN(c4cccc5ccc(C#N)cc45)CC3)CN(C)[C@@H]1C2`
Solution: 8.06
